Entry source: ChEMBL document CHEMBL1764975

MIC by entry:
Tested on: Staphylococcus aureus
Procedure details: Antimicrobial activity against Staphylococcus aureus Smith after 18 hrs by agar dilution method
Format: functional

Task: For the compound COc1cc(O)c2c(c1Br)C(=O)OCC(=O)NCC(=S)N[C@H](c1nc(C)no1)CSC2 , give its measured MIC value.
Result: < 0.12 µg/mL

Task: For the compound COc1cc(O)c2c(c1Br)C(=O)OCCCCC(=O)N[C@H](c1nc(C)no1)CSC2 , give its measured MIC value.
Result: < 0.12 µg/mL

Task: For the compound COc1cc(O)c2c(c1Br)C(=O)OCCCCC(=S)N[C@H](c1nc(C)no1)CSC2 , give its measured MIC value.
Result: < 0.12 µg/mL
